# assayed system: GST-Bc1-2 (Homo sapiens, UniProt P10415)
# Sequence (P10415 whole entry): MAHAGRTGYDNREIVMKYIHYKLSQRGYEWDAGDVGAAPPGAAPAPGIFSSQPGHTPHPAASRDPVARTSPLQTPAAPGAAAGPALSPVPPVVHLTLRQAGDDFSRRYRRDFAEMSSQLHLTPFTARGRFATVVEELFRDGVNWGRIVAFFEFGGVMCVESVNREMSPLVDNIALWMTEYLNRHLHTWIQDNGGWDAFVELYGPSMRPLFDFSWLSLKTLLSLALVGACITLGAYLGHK
# measurement description: Time Resolved-Fluorescence Resonance Energy Transfer (TR-FRET) Bcl-2 binding assay with F-Bak peptide probe
# test parameters: GST-Bcl-2 1 nM, F-Bak probe 100 nM, Tb-anti-GST 1 nM; '<' = below limit of detection; read-out: TR-FRET Bcl-2 Binding Ki
pKi: −log10 of the molar value.
measured parameter: pKi

The cases that follow already have their pKi on record.
1. CC1(C)CCC(CN2CCN(c3ccc(C(=O)NS(=O)(=O)c4ccc(NC5CN(C6COC6)C5)c([N+](=O)[O-])c4)c(Oc4cnc5[nH]ccc5c4)c3)CC2)=C(c2ccc(Cl)cc2)C1	> 11.00
2. CC1(C)CCC(CN2CCN(c3ccc(C(=O)NS(=O)(=O)c4ccc(NCC5CN(C6COC6)CCO5)c(S(=O)(=O)C(F)(F)F)c4)c(Oc4cnc5[nH]ccc5c4)c3)CC2)=C(c2ccc(Cl)cc2)C1 (stereo not shown)	> 11.00
3. CC1(C)CCC(CN2CCN(c3ccc(C(=O)NS(=O)(=O)c4ccc(OCC5CCN(C6COC6)CC5)c(Cl)c4)c(Oc4cnc5[nH]ccc5c4)c3)CC2)=C(c2ccc(Cl)cc2)C1	10.64
4. CC1(C)CCC(CN2CCN(c3ccc(C(=O)NS(=O)(=O)c4ccc(OC[C@@H]5CN(C6COC6)C[C@H]5CF)c([N+](=O)[O-])c4)c(Oc4cnc5[nH]ccc5c4)c3)CC2)=C(c2ccc(Cl)cc2)C1 (relative stereo)	> 11.00
5. CC1(C)CCC(CN2CCN(c3ccc(C(=O)NS(=O)(=O)c4ccc(N[C@@H]5CCN(C6CCOCC6)C5)c([N+](=O)[O-])c4)c(Oc4cnc5[nH]ccc5c4)c3)CC2)=C(c2ccc(Cl)cc2)C1	> 11.00

input: # input compound: "CC1(C)CCC(CN2CCN(c3ccc(C(=O)NS(=O)(=O)c4ccc(NCC5CN(C6COC6)C5)c([N+](=O)[O-])c4)c(Oc4cnc5[nH]ccc5c4)c3)CC2)=C(c2ccc(Cl)cc2)C1" ; wanted: its pKi
output: > 11.00

input: Which value of pKi has been reported for CCN(C)C(=O)N1CCOC(CNc2ccc(S(=O)(=O)NC(=O)c3ccc(N4CCN(CC5=C(c6ccc(Cl)cc6)CC(C)(C)CC5)CC4)cc3Oc3cnc4[nH]ccc4c3)cc2[N+](=O)[O-])C1 (stereo not shown) in the records?
output: > 11.00

====

pKi by entry:
# assayed system: GST-Bc1-2 (Homo sapiens, UniProt P10415)
# measurement description: Time Resolved-Fluorescence Resonance Energy Transfer (TR-FRET) Bcl-2 binding assay with F-Bak peptide probe
# test parameters: GST-Bcl-2 1 nM, F-Bak probe 100 nM, Tb-anti-GST 1 nM; '<' = below limit of detection; read-out: TR-FRET Bcl-2 Binding Ki
Notebook: values listed as pKi are -log10 of the concentration (mol/L).

1. CC1(C)CCC(CN2CCN(c3ccc(C(=O)NS(=O)(=O)c4cnc(OCC5CCC6(CC5)CNC(=O)O6)c(Cl)c4)c(Oc4cnc5[nH]ccc5c4)c3)CC2)=C(c2ccc(Cl)cc2)C1 (single isomer, unassigned) [Example 397]	10.39

We next turn to a different molecule, shown below.
input: Reported pKi for "CC1(C)CCC(CN2CCN(c3ccc(C(=O)NS(=O)(=O)c4ccc(NCC5CCOCC5)c(Cl)c4)c(Oc4cnc5[nH]ccc5c4)c3)CC2)=C(c2ccc(Cl)cc2)C1" : what is it?
output: 8.68

====

Reported pKi values for the following compounds.
# assayed system: GST-Bc1-2 (Homo sapiens, UniProt P10415)
# measurement description: Time Resolved-Fluorescence Resonance Energy Transfer (TR-FRET) Bcl-2 binding assay with F-Bak peptide probe
# test parameters: GST-Bcl-2 1 nM, F-Bak probe 100 nM, Tb-anti-GST 1 nM; '<' = below limit of detection; read-out: TR-FRET Bcl-2 Binding Ki
pKi: −log10 of the molar value.

Check out these entries, answers already filled in.
1) CC1(C)CCC(CN2CCN(c3ccc(C(=O)NS(=O)(=O)c4cnc(OCC5(F)CCN(C(CF)CF)CC5)c(C(F)(F)F)c4)c(Oc4cnc5[nH]ccc5c4)c3)CC2)=C(c2ccc(Cl)cc2)C1 [Example 288]	9.60
2) CC1(C)CC(c2ccc(Cl)cc2)=C(CN2CCN(c3ccc(C(=O)NS(=O)(=O)c4ccc(OCC5COCCO5)c([N+](=O)[O-])c4)c(Oc4cnc5[nH]ccc5c4)c3)CC2)CO1 (stereo not drawn) [Example 32]	> 11.00

input: Please state recorded pKi (tested on GST-Bc1-2 (Homo sapiens, UniProt P10415)) of CN1CCC(Nc2ccc(S(=O)(=O)NC(=O)c3ccc(N4CCN(CC5=C(c6ccc(Cl)cc6)CC(C)(C)OC5)CC4)cc3Oc3cnc4[nH]ccc4c3)cc2S(=O)(=O)C(F)(F)F)CC1 [Example 45]
output: > 11.00

====

# assayed system: GST-Bc1-2 (Homo sapiens)
# measurement description: Time Resolved-Fluorescence Resonance Energy Transfer (TR-FRET) Bcl-2 binding assay with F-Bak peptide probe
# test parameters: GST-Bcl-2 1 nM, F-Bak probe 100 nM, Tb-anti-GST 1 nM; '<' = below limit of detection; read-out: TR-FRET Bcl-2 Binding Ki
Measured pKi, listed per entry for reference.
pKi here is simply -log10 of the concentration when that concentration is written in mol/L.

In the examples that follow, each entry is paired with its recorded pKi.
1. CC1(C)CCC(CN2CCN(c3ccc(C(=O)NS(=O)(=O)c4cnc(OCC5CCOCC5)c(C(N)=O)c4)c(Oc4cnc5[nH]ccc5c4)c3)CC2)=C(c2ccc(Cl)cc2)C1	9.03
2. CN(C)CC(=O)N1CCO[C@@H](COc2ncc(S(=O)(=O)NC(=O)c3ccc(N4CCN(CC5=C(c6ccc(Cl)cc6)CC(C)(C)CC5)CC4)cc3Oc3cnc4[nH]ccc4c3)cc2Cl)C1	10.72
3. COc1cccc(CNc2ccc(S(=O)(=O)NC(=O)c3ccc(N4CCN(CC5=C(c6ccc(Cl)cc6)CC(C)(C)CC5)CC4)cc3Oc3cnc4[nH]ccc4c3)cc2[N+](=O)[O-])c1	10.64
4. O=C(NS(=O)(=O)c1ccc(N[C@H]2CC[C@H](N3CCOCC3)CC2)c([N+](=O)[O-])c1)c1ccc(N2CCN(CC3=C(c4ccc(Cl)cc4)CCC4(CCCC4)C3)CC2)cc1Oc1cnc2[nH]ccc2c1	11.00
5. CC1(C)CCC(CN2CCN(c3ccc(C(=O)NS(=O)(=O)c4cnc(OCC5CCOCC5)c(F)c4)c(Oc4cnc5[nH]ccc5c4)c3)CC2)=C(c2ccc(Cl)cc2)C1	10.03
6. CC1(C)CCC(c2ccc(Cl)cc2)=C(CN2CCN(c3ccc(C(=O)NS(=O)(=O)c4cnc(OCC5CCOCC5)c(C#N)c4)c(Oc4cnc5[nH]ccc5c4)c3)CC2)C1	9.71

input: Form field: reported pKi of "CC1(C)C=CC(c2ccc(Cl)cc2)=C(CN2CCN(c3ccc(C(=O)NS(=O)(=O)c4ccc(NCC5CCOCC5)c([N+](=O)[O-])c4)c(Oc4cnc5[nH]ccc5c4)c3)CC2)C1"
output: 10.44

input: Quick check: pKi of "CC1(C)CCC(CN2CCN(c3ccc(C(=O)NS(=O)(=O)c4ccc(NC5CN(C(CF)CF)C5)c([N+](=O)[O-])c4)c(Oc4cnc5[nH]ccc5c4)c3)CC2)=C(c2ccc(Cl)cc2)C1" ?
output: 10.77

input: So what does the record say about pKi for CC1(C)CCC(CN2CCN(c3ccc(C(=O)NS(=O)(=O)c4ccc(NCC5CN(C6CC6)CCO5)c([N+](=O)[O-])c4)c(Oc4cnc5[nH]ccc5c4)c3)CC2)=C(c2ccc(Cl)cc2)C1 (stereo not shown) ?
output: 10.89

input: Look up pKi: "CC1(C)CCC(CN2CCN(c3ccc(C(=O)NS(=O)(=O)c4cc(F)c(OCC5(F)CCOCC5)c(F)c4)c(Oc4cnc5[nH]ccc5c4)c3)CC2)=C(c2ccc(Cl)cc2)C1"
output: 9.78

====

# assayed system: GST-Bc1-2 (Homo sapiens)
# measurement description: Time Resolved-Fluorescence Resonance Energy Transfer (TR-FRET) Bcl-2 binding assay with F-Bak peptide probe
# test parameters: GST-Bcl-2 1 nM, F-Bak probe 100 nM, Tb-anti-GST 1 nM; '<' = below limit of detection; read-out: TR-FRET Bcl-2 Binding Ki
measured parameter: pKi
Schema: pKi number; meaning minus log10 of the concentration expressed in molar units.

Example entries and their recorded answers appear below.
1) CO[C@H]1CC[C@H](CNc2ccc(S(=O)(=O)NC(=O)c3ccc(N4CCN(CC5=C(c6ccc(Cl)cc6)CC(C)(C)CC5)CC4)cc3Oc3cnc4[nH]ccc4c3)cc2[N+](=O)[O-])CC1	11.00
2) CC1(C)CCC(CN2CCN(c3ccc(C(=O)NS(=O)(=O)c4cnc(OCC(C)(CO)CO)c(Cl)c4)c(Oc4cnc5[nH]ccc5c4)c3)CC2)=C(c2ccc(Cl)cc2)C1	9.39
3) CC1(C)CCC(CN2CCN(c3ccc(C(=O)NS(=O)(=O)c4ccc(OCC5CCOCC5)c(C#N)c4)c(Oc4cnc5[nH]ccc5c4)c3)CC2)=C(c2ccc(Cl)cc2)C1	10.62
4) CC1(C)CCC(CN2CCN(c3ccc(C(=O)NS(=O)(=O)c4cc(F)c(NCC5CCOCC5)cc4Cl)c(Oc4cnc5[nH]ccc5c4)c3)CC2)=C(c2ccc(Cl)cc2)C1	8.68
5) CC1(C)CCC(CN2CCN(c3ccc(C(=O)NS(=O)(=O)c4ccc(NCc5ccc(O)cc5)c([N+](=O)[O-])c4)c(Oc4cnc5[nH]ccc5c4)c3)CC2)=C(c2ccc(Cl)cc2)C1	10.66

input: Name the recorded pKi for "CC1(C)CCC(CN2CCN(c3ccc(C(=O)NS(=O)(=O)c4cnc(NCC5CCOCC5)c(C#N)c4)c(Oc4cnc5[nH]ccc5c4)c3)CC2)=C(c2ccc(Cl)cc2)C1" .
output: 9.05

input: Reported pKi for "CN1CCC(Nc2ccc(S(=O)(=O)NC(=O)c3ccc(N4CCN(CC5=C(c6ccc(Cl)cc6)CC(C)(C)CC5)CC4)cc3Oc3cccc4[nH]c5ccccc5c34)cc2[N+](=O)[O-])CC1" : what is it?
output: 8.31

input: Could you share which pKi value was measured for "CC1(C)CCC(CN2CCN(c3ccc(C(=O)NS(=O)(=O)c4ccc(NCC5(N6CCOCC6)CCCCC5)c([N+](=O)[O-])c4)c(Oc4cnc5[nH]ccc5c4)c3)CC2)=C(c2ccc(Cl)cc2)C1" ?
output: 9.63
